Field: log10 of IC50. System: Glucagon receptor (Homo sapiens, UniProt P47871). Provenance: assorted publications.
measurement_type: log10 of IC50 (log10 of the value in nM)

- CCCC[C@H](c1ccc(C(=O)NCCC(=O)O)cc1)C(c1ccc(Cl)cc1)c1csc2c(-c3ccnn3C)cc(F)cc12 (stereo partly drawn): 0.67
- N#Cc1cc(Cl)cc(O[C@@H](c2ccc(Cl)cc2)[C@H](CCC(F)(F)F)c2ccc(C(=O)NCCC(=O)O)cc2)c1: 1.26
- CCC[C@H](c1ccc(C(=O)NCCC(=O)O)cc1)C(c1ccc(Cl)cc1)c1ccc(F)c2ccccc12 (stereo partly drawn): 0.52
- CCCC(c1ccc(C(=O)NCCC(=O)O)cc1)C(c1ccc(Cl)cc1)c1nn(C)c2c(F)cc(F)cc12 (single isomer, unassigned): 0.60
- CCC[C@H](c1ccc(C(=O)NCCC(=O)O)cc1)[C@@H](Oc1ccc(C(F)(F)F)cc1C#N)c1ccc(Cl)cc1: 0.56
- CCCC(c1ccc(C(=O)NCCC(=O)O)cc1)C(c1ccc(Cl)cc1)c1nn(C)c2c(Cl)cc(C(F)(F)F)cc12 (single isomer, unassigned): -0.15
- CCC[C@H](c1ccc(C(=O)NCCC(=O)O)cc1)C(c1ccc(Cl)cc1)c1csc2c(C#N)cc(F)cc12 (stereo partly drawn): 0.04
- O=C(O)CCNC(=O)c1ccc(NC(c2cc3ccc(C(F)(F)F)cc3s2)C2CCCCC2)cc1 (stereo not drawn): 2.32
- CCC[C@H](c1ccc(C(=O)NCCC(=O)O)cc1)[C@@H](Oc1cc(C(F)(F)F)ccc1C#N)c1ccc(Cl)cc1: 0.88
- CCC[C@H](c1ccc(C(=O)NCCC(=O)O)cc1)[C@@H](Oc1cc(C(C)(C)C)cc(C(C)(C)C)c1)c1ccc(Cl)cc1: 1.04
- CCCC(c1ccc(C(=O)NCCC(=O)O)cc1)C(c1ccc(Cl)cc1)c1ccc2cc(S(C)(=O)=O)ccc2c1 (stereo not drawn): 0.46
- CCCC(c1ccc(C(=O)NCCC(=O)O)cc1)C(c1ccc(Cl)cc1)c1ccnc2cc(OC(F)(F)F)ccc12 (stereo not drawn): -1.00
- O=C(O)CCNC(=O)c1ccc(CN(C(=O)Nc2ccc(OC(F)(F)F)c(CO)c2)c2ccc(C3CCCCC3)cc2)cc1: 1.69
- O=C(O)CCNC(=O)c1ccc(CN(C(=O)Nc2cccc(OC(F)(F)F)c2)c2ccc(C3=CCCCC3)cc2)cc1: 1.40
- CCCC(c1ccc(C(=O)NCCC(=O)O)cc1)C(c1ccc(Cl)cc1)c1nc(C2CCCCC2)c2ccc(C(F)(F)F)cc2n1 (stereo not drawn): 0.65
- CCC[C@H](c1ccc(C(=O)NCCC(=O)O)cc1)C(c1ccc(C#N)cc1)c1ccc(F)c2ccccc12 (stereo partly drawn): 0.32
- O=C(O)CCNC(=O)c1ccc(CN(C(=O)Nc2cccc(Br)c2)c2ccc(C3=CCCCC3)cc2)cc1: 1.72
- CCC[C@H](c1ccc(C(=O)NCC(F)(F)C(=O)O)cc1)C(c1ccc(Cl)cc1)c1csc2c(Br)cc(C)cc12 (stereo partly drawn): 1.07
- Cn1c(C(Nc2ccc(C(=O)NCCC(=O)O)cc2)C2CCCCC2)nc2ccccc21 (stereo not drawn): 3.23
- CCC(CC)C(Nc1ccc(C(=O)N(C)CCC(=O)O)cc1)c1oc2ccc(F)cc2c1C (single isomer, unassigned): 2.95
- CCC[C@H](c1ccc(C(=O)NCCC(=O)O)cc1)[C@@H](Oc1ccnc2cc(C#N)ccc12)c1ccc(Cl)cc1: 0.74
- CCC[C@H](c1ccc(C(=O)NCCC(=O)O)cc1)C(c1ccc(Cl)cc1)c1csc2c(C#N)cc(C(F)(F)F)cc12 (stereo partly drawn): 0.23
- CCC[C@H](c1ccc(C(=O)NCCC(=O)O)cc1)C(c1ccc(Cl)cc1)c1cccc2nc(OC)ccc12 (single isomer, unassigned): -0.30
- CCC[C@H](c1ccc(C(=O)NCCC(=O)O)cc1)[C@H](c1ccc(Cl)cc1)c1n[nH]c2c(F)cc(C)cc12 (single isomer, unassigned): -0.10
- CCC[C@H](c1ccc(C(=O)NCCC(=O)O)cc1)[C@@H](Oc1cc(C#N)cc(C(F)(F)F)c1)c1ccc(OC(F)(F)F)cc1: 0.40
- CCC[C@H](c1ccc(C(=O)NCCC(=O)O)cc1)C(c1ccc(Cl)cc1)c1ccc2cc(C#N)ccc2c1 (stereo partly drawn): 0.18
- CCC[C@H](c1ccc(C(=O)NCCC(=O)O)cc1)[C@@H](Oc1cc(C#N)c(Cl)c(C(F)(F)F)c1)c1ccc(Cl)cc1: 0.15
